Test system: DU-145 prostate
Assay procedure: NCI-60 one-dose screen, 48 h
Applied conditions: 10 µM unless noted
This is part of a sample that, as a whole, favours compounds with a hit. Of some 83,000 tested, about 20% had one in any assay. Calls of active or inactive are those of the source. Rule for the calls: active = growth percent below 10; inactive = the rest.
Result category, one only: y = active, n = inactive

Request: Would you mind telling me which call this test gave CC(=O)Nc1ccc(S(=O)(=O)NC(CCC(=O)Nc2ccc(Cl)cc2)C(=O)O)cc1 (stereo not drawn) ?
Response: n

Request: Returns: the outcome recorded for `COC(=O)CCCCN=Cc1c(O)c(O)c(C(C)C)c2cc(C)c(-c3c(C)cc4c(C(C)C)c(O)c(O)c(C=NCCCCC(=O)OC)c4c3O)c(O)c12` in this assay.
Response: n

Request: Name the outcome recorded for O=C(NCCc1c[nH]c2ccccc12)C1Cc2ccccc2CN1C(=O)c1ccco1 (stereo not drawn) in the assay.
Response: n

Request: So what was the verdict on `C/C(=C\c1csc(C)n1)[C@@H]1C[C@@H]2O[C@]2(C)CCC[C@H](C)[C@H](O)[C@@H](C)C(=O)C(C)(C)[C@@H](O)CC(=O)N1` in this test?
Response: y

Request: What was the test verdict on CCCC(C(=O)OCC)C(C)OC(=O)OCC (stereo not drawn) ?
Response: n

Request: Any idea what this test logged for `Nc1c(C(=O)Nc2ccccc2)sc2nc3c(cc12)CCCCC3` ?
Response: y

Request: In this assay, the call recorded for CC1CCc2c(sc(NC(=O)CSc3nnc4ccccn34)c2C(N)=O)C1 (stereo not drawn) was what?
Response: n

Request: Hi, sorry to bother you, what did the test record for `CC/C(=C(\c1ccc(O)cc1)c1ccc(OCCN(C)CCN(C)C(=O)CCC(=O)c2c(C)[nH]c(/C=C3\N=C(c4ccc[nH]4)C=C3OC)c2C)cc1)c1ccccc1` ?
Response: n

====

Give growth for every item shown.
System: IGROV1 ovarian
Assay procedure: NCI-60 one-dose screen, 48 h (100 = growth as untreated, 0 = no growth, -100 = all killed)
Applied conditions: 10 µM unless noted
Procedure: Growth inhibition of the IGROV1 human tumor cell line is measured as a screen for anti-cancer activity. Cells are grown in 96 well plates and exposed to the test compound for 48 hours. Compounds are tested at a single concentration, which is 10^-5 M for most compounds. The reported endpoint is percent growth (GI% or GIPRCNT), where numbers from 0 - 100% represent growth inhibition, and numbers from -100% - 0 represent cell death. For example, a value of 40 represents 60% growth inhibition. […]
Compounds without any hit were thinned out: in the full panel of roughly 83,000, 20% have a hit.
Give just the number in %; leave the unit off.

Request: Form entry - test system: IGROV1 ovarian; read-out: growth; compound: `O=S(=O)(NCCCNc1nccc(-c2c(-c3ccccc3)nc3sccn23)n1)c1ccc(F)cc1`
Response: 32.9

Request: Requested read-out growth, target or system IGROV1 ovarian, entry `Cc1ccc(C(=O)c2sc3nc4c(cc3c2N)CCCC4)c(C)c1`
Response: 41.4

Request: Missing value: growth, IGROV1 ovarian, entry `COc1ccc(/C(=N/O)c2cc(OC)c(OC)c(OC)c2)c(OC)c1N` . Fill in?
Response: 55

Request: Please state recorded growth (tested on IGROV1 ovarian) of `Nc1nc(-c2cc3ccccc3o2)cc(=O)c(=O)[nH]1`
Response: 100

Request: Give the reported growth for `O=C(CN1CCOCC1)Nc1ccc(-c2nc3ccccc3s2)cc1` (system: IGROV1 ovarian).
Response: 106

Request: Record `CCC(=O)Nc1ccccc1C#C/C=C\C#Cc1ccccc1SC` : what is its growth with IGROV1 ovarian?
Response: -49.3

Request: Find growth (IGROV1 ovarian) for the entry CCOC(=O)C1=C(C)NC(=O)NC1c1ccc(OCC(=O)N/N=C/c2ccc(Cl)cc2)cc1 (stereo not given)
Response: 94.9

Request: growth of `COc1ccc(/C=C\c2cc(OC)c(OC)c(OC)c2)c(NS(=O)(=O)c2ccc(C(C)(C)C)cc2)c1O` on IGROV1 ovarian?
Response: 38.5

Request: Form field - read-out: growth; system: IGROV1 ovarian; submitted item: `CCCCCc1c(C)[nH]c(/C=c2\[nH]/c(=C3/C=c4ccccc4=N3)cc2OC)c1C`
Response: -4.01

Request: Return growth measured with IGROV1 ovarian given this compound: CC1Cc2c(N(C)C)ncnc2N(C)c2ccc(Cl)cc21 (stereo not given)
Response: 57.5

Attribution: PubChem BioAssay (NCI)
